Reported pIC50 values for a set of molecules
- Tested on: 8226LR5
- method_notes: cells
- Assay type: cell-based, human
- conditions_used: 8226LR5, melphalan resistance; 72 hours incubation; read-out: IC50
Counter-ions that a name gives are not always drawn.
Units for pIC50: none; it is -log10 of a concentration expressed in mol/L.

The cases that follow already have their pIC50 on record.
INSERT INTO measurements (molecule, obs_value) VALUES
  ('CCOC(=O)[C@H](Cc1ccc([N+](=O)[O-])cc1)NC(=O)[C@@H](N)Cc1ccc(N(CCCl)CCCl)cc1 [JV26, hydrochloride]', 5.70),
  ('CCOC(=O)[C@H](Cc1ccc(OC)cc1)NC(=O)[C@@H](N)Cc1ccc(N(CCCl)CCCl)cc1 [JV25, hydrochloride]', 5.74),
  ('O=c1[nH]cc(F)c(=O)[nH]1 [Example 5-FU, 5-FU, reference compound]', 5.28),
  ('CCOC(=O)[C@H](Cc1ccc(F)cc1)NC(=O)[C@H](Cc1cccc(N(CCCl)CCCl)c1)NC(=O)[C@@H]1CCCN1 [Example P2, hydrochloride, reference compound]', 5.13),
  ('CCOC(=O)[C@H](Cc1ccc(F)cc1)NC(=O)[C@@H](N)Cc1ccc(N(CCCl)CCCl)cc1.Cl [Example J1, hydrochloride]', 5.61);

[ask] Need pIC50 of CCOC(=O)[C@H](Cc1ccc(F)cc1)NC(=O)[C@H](Cc1ccc(N(CCCl)CCCl)cc1)NC(=O)[C@@H]1CCCN1.Cl [Example J3, hydrochloride] , thanks.
[reply] 5.45

[ask] Entry CCOC(=O)[C@H](Cc1ccc(N(CCCl)CCCl)cc1)NC(=O)[C@@H](N)Cc1ccc(N(CCCl)CCCl)cc1 [JV27, hydrochloride] please
[reply] 5.61

[ask] Entry CC(C)OC(=O)[C@H](Cc1ccc(F)cc1)NC(=O)[C@@H](N)Cc1ccc(N(CCCl)CCCl)cc1.Cl [JV28, hydrochloride] please
[reply] 5.73

[ask] Entry CCOC(=O)[C@H](Cc1ccc(N)cc1)NC(=O)[C@@H](N)Cc1ccc(N(CCCl)CCCl)cc1 [JV29, hydrochloride] please
[reply] 5.56

###

- Tested on: U-937
- method_notes: FMCA comparing J1 and AcJ1
- Type: cell-based
- conditions_used: U-937 cell line
measured_quantity: pIC50
Units for pIC50: none; it is -log10 of a concentration expressed in mol/L.

[ask] Need pIC50 of CCOC(=O)[C@H](Cc1ccc(F)cc1)NC(=O)[C@H](Cc1ccc(N(CCCl)CCCl)cc1)NC(C)=O , thanks.
[reply] 6.21

###

- Tested on: NSC Lung cancer
- method_notes: Cytotoxic activity in different tumour models
- Type: cell-based, human
- conditions_used: Number 8
Structures can show the parent of a compound that is named as a salt.
measured_quantity: Median response at 4.0 µM >50% reduction in tumour cell survival

INSERT INTO assay_data (compound, obs_value) VALUES
  ('CCOC(=O)[C@H](Cc1ccc(F)cc1)NC(=O)[C@H](Cc1cccc(N(CCCl)CCCl)c1)NC(=O)[C@@H]1CCCN1 [Example P2, hydrochloride, reference compound]', 'No'),
  ('CCOC(=O)[C@H](Cc1ccc(F)cc1)NC(=O)[C@H](Cc1ccc(N(CCCl)CCCl)cc1)NC(=O)[C@@H]1CCCN1.Cl [Example J3]', 'Yes'),
  ('CCOC(=O)[C@H](Cc1ccc(F)cc1)NC(=O)[C@@H](N)Cc1ccc(N(CCCl)CCCl)cc1.Cl [Example J1]', 'Yes'),
  ('CC(C)OC(=O)[C@H](Cc1ccc(F)cc1)NC(=O)[C@@H](N)Cc1ccc(N(CCCl)CCCl)cc1.Cl [JV28]', 'Yes');

###

- System: Breast cancer
- method_notes: Cytotoxic activity in different tumour models
- Format: cell-based, human
- conditions_used: Number 4
Structures can show the parent of a compound that is named as a salt.
measured_quantity: Median response at 4.0 µM >50% reduction in tumour cell survival

INSERT INTO assay_data (compound, obs_value) VALUES
  ('CCOC(=O)[C@H](Cc1ccc(F)cc1)NC(=O)[C@H](Cc1cccc(N(CCCl)CCCl)c1)NC(=O)[C@@H]1CCCN1 [Example P2, hydrochloride, reference compound]', 'No'),
  ('CCOC(=O)[C@H](Cc1ccc(F)cc1)NC(=O)[C@@H](N)Cc1ccc(N(CCCl)CCCl)cc1.Cl [Example J1]', 'Yes'),
  ('CC(C)OC(=O)[C@H](Cc1ccc(F)cc1)NC(=O)[C@@H](N)Cc1ccc(N(CCCl)CCCl)cc1.Cl [JV28]', 'Yes'),
  ('CCOC(=O)[C@H](Cc1ccc(F)cc1)NC(=O)[C@H](Cc1ccc(N(CCCl)CCCl)cc1)NC(=O)[C@@H]1CCCN1.Cl [Example J3]', 'Yes');
